# Assayed Target: T1, Activin A (UniProt P08476 311-426)
# T1 sequence (looked up): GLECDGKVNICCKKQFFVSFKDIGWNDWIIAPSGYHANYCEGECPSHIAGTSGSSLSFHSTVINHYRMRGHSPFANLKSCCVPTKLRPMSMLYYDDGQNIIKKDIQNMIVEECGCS
# Test Details: cell-based or functional assay
Observation Type: IC50, SBE-luciferase reporter in HEK293 cells
Answer with the figure and its unit, nothing else.

ActRIIB-A3 (SEQ ID NO: 122) chimera-Fc protein (Fc fusion, Tested as chimera-Fc protein; not shown: linker (if any) and Fc domain) GRGEAETRECIYYNANWELERTNQSGLERCYGDKDKRLHCYASWRNSSGTIELVKKGCWLDDFNCYDRQECVATEENPQVYFCCCEGNFCNERFTHLPEAGGPEVTYEPPPTAPT ... 0.056 µg/mL

Measured IC50, SBE-luciferase reporter in HEK293 cells of ActRIIB-B2 (SEQ ID NO: 111) chimera-Fc protein (Fc fusion, Tested as chimera-Fc protein; not shown: linker (if any) and Fc domain) GRGEAETRECIYYNANWELERTNQTGVEPCEGEQDKRLHCYASWRNSSGTIELVKKGCWLDDFNCYDRQECVATEENPQVYFCCCEGNFCNERFTHLPEAGGPEVTYEPPPTAPT : 0.14 µg/mL
